Sourced from a melting point compilation (Tetko et al.; mined from patent text by program, amines drawn as free bases though some values may be those of a salt)

ENDPOINT_LABEL: melting point

Worked cases, answers included:
# COMPOUND, ENDPOINT_LABEL, ENDPOINT_RESULT
data = [
    ("Cc1nn(C)c(O)c1C(=O)c1ccc(Cl)c(OCCn2cnnn2)c1Cl", "melting point", "63 to 68 °C"),
    ("COC(=O)C1CCCN(C(=O)OC(C)(C)C)C1 (stereo not given)", "melting point", "47.5 to 48.5 °C"),
    ("CC12C=CCC1C1CCC3CCCCC3C1CC2 (stereo not given)", "melting point", "165 to 166 °C"),
    ("Cc1cc2cc(C#N)c(Cl)nc2cc1C", "melting point", "189 to 190 °C"),
    ("COC(=O)CCCc1cc2nc(Cl)ccc2n1S(=O)(=O)c1cccc2nc(C)sc12", "melting point", "138 °C"),
]

I'd like to know its melting point. The compound in question is CC(CCl)OC(=O)Nc1ccc([N+](=O)[O-])cc1Cl (stereo not given)
101 to 103 °C

Would you mind doing CCCc1c(C(O)C(C)C)c2ccc(C#N)cc2n1Cc1ccccc1Cl (stereo not given) as well?
126 to 127 °C

Would you mind doing O=C(O)Cc1ccccc1OCCNC(=O)C1Cc2ccccc2N1S(=O)(=O)c1ccc(-c2cccc(C(F)(F)F)c2)cc1 (stereo not given) as well?
131 to 134 °C

Would you mind doing CC(=O)OC1(N=NC2(OC(C)=O)CC(C)CC(C)(C)C2)CC(C)CC(C)(C)C1 (stereo not given) as well?
111 to 115 °C

Would you mind doing `CCOC(=O)c1cn(Cc2ccccc2)nc1OCc1ccccc1` as well?
71 to 72 °C

* * *

Reported values of melting point for individual entries

Worked cases, answers included:
# COMPOUND, ENDPOINT_LABEL, ENDPOINT_RESULT
data = [
    ("NC(=O)c1n[nH]c2ccc([N+](=O)[O-])cc12", "melting point", "221 to 226 °C"),
    ("COc1ccc2c(c1)CCC1C2CCC2(C)C(=O)CC(C)(C)C12 (stereo not given)", "melting point", "145 to 148 °C"),
    ("Cc1ccc(C2CCN(C(=O)Nc3ccc4cc(CN5CCCC5)cnc4c3)CC2)cc1", "melting point", "244 to 246 °C"),
    ("CCCN1C(=O)CN(c2ccccc2)C1=O", "melting point", "97 °C"),
    ("CCOC(=O)c1nnc2ccc(NCCCN3CCC(OC(c4ccccc4)c4ccccc4)CC3)nn12", "melting point", "129 to 133 °C"),
]

I'd like to know its melting point. The compound in question is `O=C(O)Cc1ccccc1OCc1ccc(OCc2csc(-c3ccccc3)n2)cc1`
115 to 116 °C

Would you mind doing `CC1(C)CCC(=Cc2ccc(Cl)cc2)C(=O)C1` as well?
85 to 86 °C

Would you mind doing `Cc1oc(-c2ccccc2)nc1COc1ccc(COc2cccc(CC(=O)O)c2)cc1` as well?
159 to 160 °C

Would you mind doing `COc1cc(C(=O)O)ccc1S(=O)(=O)n1c(=O)n(C2CCCCC2)c2cc(OC3CCCC3)ccc21` as well?
245 °C

Would you mind doing `COc1cccc2c1CCCC2=NNc1nc(-c2cccc([N+](=O)[O-])c2)cs1` as well?
185 °C

* * *

Everything with melting point lower than 200 °C is Condition not met; everything else, including exactly 200 °C, is Condition met.

# COMPOUND, LABEL
rows = [
    ("O=C(N[C@H]1CC[C@H](CCN2CCC(c3cccc4c3CCO4)CC2)CC1)c1ccc(N2CCOCC2)nc1", "Condition met"),
]

Does the reported melting point for N#CC1=C(c2ccc(Cl)s2)Nc2n[nH]cc2C1c1cccc2nonc12 (stereo not given) fall at or above the 200 °C mark?
Condition met

Would you mind doing N#Cc1ccc(-c2cncc(OC3SCC(O)C(O)C3O)c2)cc1C#N (stereo not given) as well?
Condition not met

Would you mind doing `COC(=O)c1cncc(OC)n1` as well?
Condition not met

Would you mind doing CCOC(=O)C1=C(C)NC(N)=C(C(=O)OCC)C1c1ccccc1[N+](=O)[O-] (stereo not given) as well?
Condition not met

Would you mind doing COCc1ccc(S(=O)(=O)N2CCCC2c2ccc(F)cc2)cc1 (racemic) as well?
Condition not met

Would you mind doing `CC(=O)NCc1ccc(-c2csc(NC(C)=O)n2)s1` as well?
Condition met

Would you mind doing CCOC(=O)C1=C(C)NC(C)=C(C(=O)OC)C1c1ccc([N+](=O)[O-])cc1 (stereo not given) as well?
Condition not met

* * *

ENDPOINT_LABEL: melting point

I'd like to know its melting point. The compound in question is `CS(=O)(=O)c1ccc(N2CCC(=O)CC2)cc1`
183 to 185 °C

Would you mind doing `CSc1ccc(Oc2ccc([N+](=O)[O-])cc2)cc1` as well?
59 to 61 °C

Would you mind doing `N#CCN1C(=O)COc2cc(F)c([N+](=O)[O-])cc21` as well?
196 to 200 °C

Would you mind doing `Oc1ccc(Sc2ccc(-c3ccc(Sc4ccc(O)cc4)cc3)cc2)cc1` as well?
214 to 217 °C

Would you mind doing `CN1C[C@@H]2C[C@@]1(C(=O)c1ccc(-c3[nH]nc4c3C(=O)c3c(NC(=O)NN5CCOCC5)cccc3-4)s1)CN2` as well?
224 to 225 °C

Would you mind doing `Cc1nn(C)c(C)c1Nc1ccc([N+](=O)[O-])cc1[N+](=O)[O-]` as well?
153 °C

* * *

ENDPOINT_LABEL: melting point

# MOLECULE, melting point
records = [
    ("COc1ccc2oc(C(N)=O)c(-c3nnn[nH]3)c2c1", "205 °C"),
]

Kindly consider the entry below.
I'd like to know its melting point. The molecule in question is `CCCc1nc2c(N)nc3cc(Oc4ccc([N+](=O)[O-])cc4)ccc3c2n1CC(C)C`
209 to 211 °C

* * *

Reported values of melting point for individual entries

Worked cases, answers included:
# COMPOUND, melting point
data = [
    ("CSc1nn(-c2c(Cl)cc(Cl)cc2Cl)c(N(C)C)c1CO", "108 to 110 °C"),
    ("CN(C)C(=O)Oc1ccc(CCl)cc1", "68 °C"),
    ("O=C1C=C2CCCCC2N1c1ccc(OCCN2CCOCC2)cc1 (stereo not given)", "96 °C"),
    ("CNC(=O)ON=C1N=C(c2ccccc2)C(C)(C)S1", "135 to 137 °C"),
    ("Nc1ccccc1N1CCN(CCCOc2cccc3c2CCCC3)CC1", "100 to 101 °C"),
    ("CN(C)C1CCN(c2nc(N3CCOCC3)c3ncnc(N(CC(=O)O)Cc4ccccc4)c3n2)CC1", "151 to 155 °C"),
    ("c1ccc(Cn2cccc2-c2nc(Nc3ccc(-c4ccccc4)cc3)nc(Nc3ccc(-c4ccccc4)cc3)n2)cc1", "185 to 186 °C"),
    ("O=C(/C=C/c1ccc2ccccc2c1)Nc1cc(Cl)ccc1NS(=O)(=O)c1ccccc1", "220 to 223 °C"),
    ("O=C(O)c1cc2c(s1)S(=O)(=O)CC2", "227 to 230 °C"),
]

I'd like to know its melting point. The compound in question is `N#CCc1c[nH]c2ccc(NC(=O)NC3CCCCC3)cc12`
233 to 234 °C

* * *

ENDPOINT_LABEL: melting point

Worked cases, answers included:
# COMPOUND, ENDPOINT_RESULT
records = [
    ("CC(=O)SCC(C(=O)NC(Cc1ccc(O)cc1)C(=O)O)C(F)(F)F (stereo not given)", "170 to 173 °C"),
    ("Cn1nnc(NC(=O)C2c3ccccc3Oc3ccccc32)n1", "247 °C"),
    ("COc1ccc(COc2ccc(C=C(C=O)C(C=O)=Cc3ccc(OCc4ccc(OC)cc4)cc3)cc2)cc1", "218 to 220 °C"),
]

I'd like to know its melting point. The compound in question is CCCN(CC(O)COc1ccc2c(=O)cc(-c3ccccc3)oc2c1)C(=O)OCc1ccccc1 (stereo not given)
92 to 94 °C

Would you mind doing Nc1cc(OCC2CC=CCC2)cc(N)n1 (stereo not given) as well?
89 °C

Would you mind doing `CCOC(=O)CNc1nc(Cl)nc(Cl)n1` as well?
82 to 87 °C

Would you mind doing `Nc1cc(C(=O)O)cc(SCc2ccccc2)c1-c1ccccc1` as well?
173 to 174 °C

* * *

ENDPOINT_LABEL: melting point

# COMPOUND, ENDPOINT_RESULT
rows = [
    ("CNc1nc(C)c(C(=O)c2ccc(Cl)c([N+](=O)[O-])c2)s1", "220 to 232 °C"),
]

I'd like to know its melting point. The compound in question is `CC1(C)OCCN1C(=O)C=Cc1ccccc1`
107 to 109 °C

Would you mind doing OCC1OC(n2cnc3c(NC4CCCc5ccccc54)ncnc32)C(O)C1O (stereo not given) as well?
95.5 to 100 °C

Would you mind doing `CC(C)(CO)NS(=O)(=O)c1cccc(Br)c1` as well?
138 °C

Would you mind doing `COc1cc2ccn(C(=O)c3ccc(-c4ccc(-c5noc(C)n5)cc4C)cc3)c2cc1OCCN(C)C` as well?
130 to 131 °C

Would you mind doing `CCn1nnc(NC(=O)C(c2ccccc2)c2ccccc2)n1` as well?
169 to 170 °C

Would you mind doing `O=[N+]([O-])c1cc(Cl)c(CO)c(Cl)c1` as well?
111 to 114 °C

Would you mind doing `O=Cc1c2ccccc2c(C=O)c2cc3ccccc3cc12` as well?
215 to 217 °C

Would you mind doing `NC(=O)c1nc2ccccc2cc1OCCCN1CCN(c2cccc3sccc23)CC1` as well?
153 to 154 °C

Would you mind doing O=S(=O)(CC1CS1)c1ccc(Oc2ccccc2)cc1 (stereo not given) as well?
99 to 101 °C
